Overview of recorded IC50 for various compounds
# System: colorectal cancer cell lines (e.g. DLD-1, HCT 116, SW620, HCT-15, HCT-8, RKO)
# test-protocol: Cell based assay, cell viability (CellTiter-Glo), colorectal cancer cell lines
# particulars: Homo sapiens, DLD-1 cells, 72 hours treatment, read-out: IC50, colorectal cancer cell line DLD-1

[
  {
    "compound": "CC(=O)c1c([S+]([O-])Cc2ccc(C(F)(F)F)nc2C)[nH]c2c(Br)ccc(Cl)c2c1=O (centres unmarked)",
    "measure-unit": "nM",
    "result-modifier": "=",
    "IC50": 1160
  },
  {
    "compound": "COc1cccc2[nH]c([S+]([O-])Cc3ccc(S(F)(F)(F)(F)F)cc3)c(C(C)=O)c(=O)c12 (centres unmarked)",
    "measure-unit": "nM",
    "result-modifier": ">",
    "IC50": 2000
  },
  {
    "compound": "COc1cccc2[nH]c([S+]([O-])Cc3cc(C)on3)c(C(C)=O)c(=O)c12 (centres unmarked)",
    "measure-unit": "nM",
    "result-modifier": ">",
    "IC50": 2000
  },
  {
    "compound": "CC(=O)c1c([S+]([O-])Cc2ccc(NS(C)(=O)=O)cc2)[nH]c2c(Br)ccc(Cl)c2c1=O (centres unmarked)",
    "measure-unit": "nM",
    "result-modifier": ">",
    "IC50": 2000
  },
  {
    "compound": "Cc1cc(C[S+]([O-])c2[nH]c3c(Cl)ccc(Cl)c3c(=O)c2C(=O)C(C)C)no1 (centres unmarked)",
    "measure-unit": "nM",
    "result-modifier": "=",
    "IC50": 1090
  },
  {
    "compound": "CC(=O)c1c([S+]([O-])Cc2cccnc2)[nH]c2c(Br)ccc(Cl)c2c1=O (centres unmarked)",
    "measure-unit": "nM",
    "result-modifier": "=",
    "IC50": 930
  },
  {
    "compound": "CC(=O)c1c([S+]([O-])Cc2nonc2C)[nH]c2c(Br)ccc(Cl)c2c1=O (centres unmarked)",
    "measure-unit": "nM",
    "result-modifier": ">",
    "IC50": 2000
  },
  {
    "compound": "COC(=O)c1ccc(C[S+]([O-])c2[nH]c3c(Cl)ccc(Cl)c3c(=O)c2C(C)=O)cc1 (centres unmarked)",
    "measure-unit": "nM",
    "result-modifier": "=",
    "IC50": 1820
  }
]

----------
Overview of recorded IC50 for various compounds
# Test system: colorectal cancer cell lines (e.g. DLD-1, HCT 116, SW620, HCT-15, HCT-8, RKO)
# test-protocol: Cell based assay, cell viability (CellTiter-Glo), colorectal cancer cell lines
# particulars: Homo sapiens, HCT-15 cells, 72 hours treatment, read-out: IC50, colorectal cancer cell line HCT-15

[
  {
    "compound": "COC(=O)c1ccc(C[S+]([O-])c2[nH]c3c(Cl)ccc(Cl)c3c(=O)c2C(C)=O)o1 (stereo not drawn)",
    "measure-unit": "nM",
    "result-modifier": ">",
    "IC50": 2000
  },
  {
    "compound": "COCCNc1ccc(C[S+]([O-])c2[nH]c3c(Br)ccc(Cl)c3c(=O)c2C(C)=O)cn1 (stereo not drawn)",
    "measure-unit": "nM",
    "result-modifier": ">",
    "IC50": 2000
  },
  {
    "compound": "CC(=O)c1c([S+]([O-])Cc2ccc(C(F)(F)F)nc2C)[nH]c2c(Br)ccc(Cl)c2c1=O (stereo not drawn)",
    "measure-unit": "nM",
    "result-modifier": "=",
    "IC50": 1330
  },
  {
    "compound": "CC(=O)c1c([S+]([O-])Cc2nonc2C)[nH]c2c(Br)ccc(Cl)c2c1=O (stereo not drawn)",
    "measure-unit": "nM",
    "result-modifier": ">",
    "IC50": 2000
  },
  {
    "compound": "Cc1cc(C[S+]([O-])c2[nH]c3c(Cl)ccc(Cl)c3c(=O)c2C(=O)C2CC2)no1 (stereo not drawn)",
    "measure-unit": "nM",
    "result-modifier": "=",
    "IC50": 1420
  },
  {
    "compound": "Cc1cc(C[S+]([O-])c2[nH]c3c(Cl)ccc(Cl)c3c(=O)c2C(=O)c2ccccc2)no1 (stereo not drawn)",
    "measure-unit": "nM",
    "result-modifier": ">",
    "IC50": 2000
  },
  {
    "compound": "CC(=O)c1c([S+]([O-])Cc2ccc(-n3cccn3)nc2)[nH]c2c(Br)ccc(Cl)c2c1=O (stereo not drawn)",
    "measure-unit": "nM",
    "result-modifier": "=",
    "IC50": 970
  },
  {
    "compound": "Cc1cc(C[S+]([O-])c2[nH]c3c(Br)ccc(Cl)c3c(=O)c2C(=O)C(C)C)no1 (stereo not drawn)",
    "measure-unit": "nM",
    "result-modifier": "=",
    "IC50": 1060
  },
  {
    "compound": "Cc1cc(C[S+]([O-])c2[nH]c3c(Br)ccc(Cl)c3c(=O)c2C(=O)C2CC2)no1 (stereo not drawn)",
    "measure-unit": "nM",
    "result-modifier": "=",
    "IC50": 1870
  },
  {
    "compound": "CC(=O)c1c([S+]([O-])Cc2ccc(N)nc2)[nH]c2c(Br)ccc(Cl)c2c1=O (stereo not drawn)",
    "measure-unit": "nM",
    "result-modifier": ">",
    "IC50": 2000
  },
  {
    "compound": "CC(=O)c1c([S+]([O-])Cc2ccc(C#N)s2)[nH]c2c(Br)ccc(Cl)c2c1=O (stereo not drawn)",
    "measure-unit": "nM",
    "result-modifier": "=",
    "IC50": 1730
  },
  {
    "compound": "CC(C)C(=O)c1c([S+]([O-])Cc2ccc(SC(F)(F)F)cc2)[nH]c2c(F)ccc(F)c2c1=O (stereo not drawn)",
    "measure-unit": "nM",
    "result-modifier": ">",
    "IC50": 2000
  }
]
